The measured values listed here are drawn from patent US20160208233A1.

kcat/Km (Hz/M) listing for selected proteins.
# tested.system: T1, Abz-LAETGK(Dnp)-CONH2
# T1 chain: LAETGK
Non-standard residues stand in square brackets, D forms with d. No end group written: not given here. *: point of attachment. Dnp = O=[N+]([O-])c1ccc(*)c([N+](=O)[O-])c1; 2Abz = Nc1ccccc1C(=O)O

# protein, kcat/Km (Hz/M)
rows = [
    ("eSrtA(2A-4) (protein) QAKPQIPKDKSKVAGYIEIPDADIKEPVYPGPATREQLNRGVSFHEENESLDDQNISIAGHTFIDRPNYQFTNLKAAKKGSMVYFKVGNETRKYKMTSIRNVRPTAVEILDEQKGKDKQLTLVTCDDYNEETGVWETRKIFVATEVK", 585),
    ("evolved sortase A (eSrtA) (enzyme) QAKPQIPKDKSKVAGYIEIPDADIKEPVYPGPATREQLNRGVSFAEENESLDDQNISIAGHTFIDRPNYQFTNLKAAKKGSMVYFKVGNETRKYKMTSIRNVKPTAVEVLDEQKGKDKQLTLITCDDYNEETGVWETRKIFVATEVK", 221),
    ("eSrtA(2A-5) (protein) QAKPQIPKDKSKVAGYIEIPDADIKEPVYPGPATREQLNHGVSFHEENESLDDQNISIAGHTFIDRPNYQFTNLKAAKIGSMVYFKVGNETRKYKMTSIRNVRPTAVEVLDEQKGKDKQLTLVTCDDYNEETGVWETRKIFVATEVK", 3260),
    ("2A.6B (protein) QAKPQIPKDKSKVAGYIEIPDADIKEPVYPGPATREQLNKGVSFHEENESLDDQNISIAGHTFIDRPNYQFTNLKAAKVGSMVYFKVGNETRKYKMTSIRKVRPTAVEVLDEQKGKDKQLTLVTCDDYNEETGVWETRKIFVATEVK", 2270),
]
